Taken from patent US8741892B2.

target: human recombinant mGluR5 (Homo sapiens); test: positive modulation of mGluR5, calcium based FLIPR assay; conditions: HEK 293 cell line expressing human recombinant mGluR5; EC50 of the modulation from peak Ca fluorescence signal after glutamate at approx. 5% basal stimulation
Sequence (P41594 21-1212): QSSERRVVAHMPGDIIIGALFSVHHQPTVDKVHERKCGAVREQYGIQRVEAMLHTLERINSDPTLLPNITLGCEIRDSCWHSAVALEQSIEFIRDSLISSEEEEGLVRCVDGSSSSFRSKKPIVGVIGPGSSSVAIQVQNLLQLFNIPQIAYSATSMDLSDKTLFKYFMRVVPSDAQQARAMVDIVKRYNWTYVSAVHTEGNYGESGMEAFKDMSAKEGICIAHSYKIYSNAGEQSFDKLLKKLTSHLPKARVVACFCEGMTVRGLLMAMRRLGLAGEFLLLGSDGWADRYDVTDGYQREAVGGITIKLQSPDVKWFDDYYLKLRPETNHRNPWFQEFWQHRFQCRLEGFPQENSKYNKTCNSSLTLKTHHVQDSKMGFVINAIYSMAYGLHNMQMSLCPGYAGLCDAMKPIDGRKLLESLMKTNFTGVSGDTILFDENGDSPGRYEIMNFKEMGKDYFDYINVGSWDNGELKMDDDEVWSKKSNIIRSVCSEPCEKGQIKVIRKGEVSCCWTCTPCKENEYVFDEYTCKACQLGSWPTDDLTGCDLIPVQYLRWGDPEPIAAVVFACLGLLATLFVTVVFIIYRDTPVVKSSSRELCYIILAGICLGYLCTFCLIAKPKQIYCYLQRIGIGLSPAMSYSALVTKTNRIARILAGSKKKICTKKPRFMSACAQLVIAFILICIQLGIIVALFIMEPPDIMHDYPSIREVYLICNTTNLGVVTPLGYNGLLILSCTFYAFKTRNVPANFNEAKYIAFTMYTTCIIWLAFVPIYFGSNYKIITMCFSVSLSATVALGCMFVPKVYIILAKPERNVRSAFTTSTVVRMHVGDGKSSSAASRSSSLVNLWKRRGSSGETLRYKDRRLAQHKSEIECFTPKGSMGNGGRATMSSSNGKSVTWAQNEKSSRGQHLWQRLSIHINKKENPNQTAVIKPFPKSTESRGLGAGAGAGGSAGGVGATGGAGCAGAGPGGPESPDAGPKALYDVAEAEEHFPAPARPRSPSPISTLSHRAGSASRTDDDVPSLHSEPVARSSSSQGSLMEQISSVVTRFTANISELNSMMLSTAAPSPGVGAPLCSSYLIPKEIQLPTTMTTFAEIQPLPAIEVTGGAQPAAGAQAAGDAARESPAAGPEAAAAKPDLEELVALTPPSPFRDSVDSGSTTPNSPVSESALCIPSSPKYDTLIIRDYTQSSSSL
MEASUREMENT_NAME: EC50 (nM)
The answer is to be given in nM; state only the numeric part.

Param item = CCc1cc(-c2ccc(C)c(F)c2)nn1CC(=O)N1CCc2nc(C)sc2CC1 ; retrieve measured EC50. 146

Param item = O=C(Cn1nc(-c2ccccc2)cc1-c1ccccc1)N1CCN(c2nnc(C(F)(F)F)s2)CC1 [Example 7.01.042] ; retrieve measured EC50. 285

Param item = Cc1cc(-c2cc(-c3ccccc3)n(CC(=O)N3CCc4cnc(Nc5ccccc5)nc4CC3)n2)ccc1F ; retrieve measured EC50. 277

Param item = Cc1nc2c(o1)CCN(C(=O)Cn1nc(-c3ccc(F)c(C)c3)cc1-c1ccccc1)C2 ; retrieve measured EC50. 26

Param item = Cc1cnc(N2CCN(C(=O)Cn3nc(-c4ccc(OC(F)F)cc4)cc3-c3ccccc3)CC2)o1 ; retrieve measured EC50. 11

Param item = Nc1nc2c(s1)CCN(C(=O)Cn1nc(-c3ccc(F)cc3)cc1-c1ccc(F)cc1)CC2 ; retrieve measured EC50. 55

Param item = CCc1cc(-c2cc(C)c(F)c(C)c2)nn1CC(=O)N1CCc2nc(N)sc2CC1 ; retrieve measured EC50. 276

Param item = CCc1cc(-c2ccc(F)c(C)c2)nn1CC(=O)N1CCc2ncsc2CC1 ; retrieve measured EC50. 84

Param item = Cc1nnc(C2CCN(C(=O)Cn3nc(-c4cccc(C#N)c4)cc3-c3ccccc3)CC2)o1 ; retrieve measured EC50. 290

Param item = Cc1cc(-c2cc(-c3ccccc3)n(CC(=O)N3CCC(c4ccccn4)CC3)n2)ccc1F ; retrieve measured EC50. 92
